- Test system: PYK2
- Construct: gene PTK2B
- conditions: concentration: 1 μM, replicates: in singlicate; n = 1
# %Inh values compiled below
# value in %; strip the unit string

Below, 4 compounds whose answers are already recorded.
>>> measured("Cn1ccc2ncnc(Oc3ccc(NC(=O)Nc4ccncc4)c(Cl)c3)c21")
0
>>> measured("O=C1NC(=O)C(N2CCc3ccccc32)=C1c1cccc(Cl)c1")
12
>>> measured("Nc1nc(-c2ccc3c(N)n[nH]c3c2)cc(N2CCCC2)n1")
20
>>> measured("O=c1cc(N2CCOCC2)nc2n(Cc3cccc(C(F)(F)F)c3)ccn12")
3

The record that follows has no %Inh shown yet.
Quick one: %Inh of O=C(Nc1n[nH]c2cc(-c3cccc(F)c3)ccc12)C1CC1 ? 0

---

// reported %Inh per item
- Tested on: HIPK4
- conditions: concentration: 1 μM, replicates: in singlicate; n = 1
Give the quantity in %, number only.

>>> measured("CC(C)(C)n1cnc2c(N)ncnc21 [SKF-97359]")
0
>>> measured("Cc1nnc(-c2ccc3ncc(-c4ccc(S(C)=O)cc4)n3c2)o1 (stereo not drawn)")
5

What value of %Inh has been recorded for this entry: O=C(NOCC1CC1)c1ccc(F)c(F)c1Nc1ccc(I)cc1Cl 0

// same read-out, input: O=C(NCCNc1ccnc(Nc2ccc(F)cc2)n1)Nc1ccccc1F [GSK1379880] 0

Proceed to Cc1ccc(NC(=O)c2ccnc(N3CCN(C)CC3)c2)cc1-c1ccc(C(=O)NCC2CC2)cc1 [GW775604] 0

Record: Cc1cccc(-c2nc(-c3ccc(S(C)(=O)=O)cc3)sc2-c2ccncc2)c1 4

Param item: O=C(NCCCN1CCOCC1)c1cccc(Nc2nccc(Nc3ccc(Oc4ccccc4)cc3)n2)c1 [GW663929] 5

Also need Cc1c(Cn2c(C)nn3c(=O)cc(N4CCOC(C)C4)nc23)cccc1C(F)(F)F (stereo not drawn) [GSK2344444] , thanks. 0

What do you get for Cc1nnc(-c2ccc3occ(-c4ccc(C(C)O)cc4)c3c2)o1 (stereo not drawn) ? 33

---

- System: AAK1
- conditions: concentration: 1 μM, replicates: in singlicate; n = 1
result type: %Inh (%)
Provide only the numeric value, understood in %.

Answered cases to consult:
>>> measured("Fc1ccc(-c2ncn(CCCN3CCOCC3)c2-c2ccccn2)cc1")
0
>>> measured("Cl.Cl.Cl.Fc1ccc(-c2ncn(C3CCNCC3)c2-c2ccnc(Nc3ccccc3)n2)cc1")
0
>>> measured("CN1c2ccc(NCc3ccc(F)cc3)cc2-c2c(cnn2C)S1(=O)=O")
0
>>> measured("Nc1nc(-c2ccc3c(N)n[nH]c3c2)cc(N2CCCC2)n1")
17
>>> measured("Cc1cn2c(=O)cc(N3CCOCC3)nc2n1Cc1cccc(Cl)c1Cl")
14
>>> measured("O=C1NC(=O)C(N2CCc3ccccc32)=C1c1cccc(Cl)c1")
2
>>> measured("COc1cc2ncn(-c3cc(OCc4sccc4Cl)c(C(N)=O)s3)c2cc1OC")
42
>>> measured("c1ccc(-c2cc(-c3c[nH]nc3-c3ccccn3)ccn2)cc1")
23

For the next question, use this compound.
What does the data say about its %Inh? Entry: COc1cc2c(cc1OC[C@@H](O)CO)ncc1c3ccc(C#N)cc3[nH]c21 78

---

- System: PIK3CB;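 note: kd values determined as follow-up on hits from a single-replicate KINOMEscan panel screen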
pKd: −log10 of the molar value.
Class true (1): pKd at least 8. Class false (0): pKd below 8.

>>> assigned_category("COc1ccc(COc2cc(-n3cnc4ccccc43)sc2C(N)=O)cc1")
"false (0)"
>>> assigned_category("COc1ccc(S(=O)(=O)NC2CCN(c3cc(C)nc(Nc4cccc(C#N)c4)n3)CC2)cc1.O=C(O)C(F)(F)F")
"false (0)"
>>> assigned_category("Cc1cccc(Cn2ccn3c(=O)cc(N4CCOCC4)nc23)c1")
"false (0)"
>>> assigned_category("O=c1cc(N2CCOCC2)nc2n(Cc3cccc(C(F)(F)F)c3)ccn12")
"false (0)"
>>> assigned_category("Cc1c(Cn2c(C)nn3c(=O)cc(N4CCOC(C)C4)nc23)cccc1C(F)(F)F (stereo not shown)")
"true (1)"

Given the entry O=c1cc(N2CCOCC2)nc2n(Cc3cccc(F)c3)ccn12 , answer whether its pKd meets or surpasses 8. false (0)

// next record [2H]C([2H])(c1cccc(C(F)(F)F)c1C)n1ccn2c(=O)nc(N3CCOCC3)cc12 false (0)

Now the same for O=c1cc(N2CCOCC2)nc2n(Cc3cccc4ccccc34)ccn12 true (1)

Now the compound Cc1cn2c(=O)cc(N3CCOCC3)nc2n1Cc1cccc(Cl)c1Cl true (1)

Param item: O=c1cc(N2CCOCC2)nc2n(Cc3cccc(Cl)c3Cl)c(C3CC3)nn12 true (1)

---

- System: WNK2
- conditions: concentration: 1 μM, replicates: in singlicate; n = 1
result type: %Inh (%)
Write it as a number; the unit % goes unstated.

Illustrative cases are given below, each with its answer.
>>> measured("COc1ccc(COc2cc(-n3cnc4ccccc43)sc2C(N)=O)cc1")
0
>>> measured("COc1ccc(S(=O)(=O)NC2CCN(c3cc(C)nc(Nc4cccc(C#N)c4)n3)CC2)cc1.O=C(O)C(F)(F)F")
0
>>> measured("O=C(Nc1cccc(-c2nn3ncccc3c2-c2ccnc(Nc3cccc(C(F)(F)F)c3)n2)c1)c1c(F)cccc1F")
0

Let us move to another entry and its %Inh.
What value of measured %Inh is listed for NS(=O)(=O)CCc1cccc(Nc2nccc(-c3c(-c4cccc(NC(=O)c5c(F)cccc5F)c4)nn4ccccc34)n2)c1 ? 6

---

- System: AURKC
- conditions: concentration: 1 μM, replicates: in singlicate; n = 1
result type: %Inh (%)
Hi! Could you send only the number? It should be in %, unit omitted.

State its %Inh on AURKC: COc1ccc(Nc2nccc(N3CCC(NC(=O)Nc4cccc(C(C)=O)c4)C3)n2)cc1 (stereo not shown) 40

# iterate: CNc1ncnc2[nH]ncc12 0

And then NCC(NC(=O)c1cc(-c2cn[nH]c2)c(-c2ccnc3[nH]ccc23)s1)c1ccccc1.O=C(O)C(F)(F)F.O=C(O)C(F)(F)F (stereo not shown) , what is it? 82

Can you check CCc1ccnc(/C=C/c2n[nH]c3cc(Sc4ccccc4C(=O)NC)ccc23)c1 next? 97.3

---

Entries and their measured %Inh follow.
- Tested on: PIKFYVE
- conditions: concentration: 1 μM, replicates: in singlicate; n = 1
Give me the value, and tack the unit on after it.

See these solved cases before continuing.
>>> measured("Cc1c(Cn2c(C)nn3c(=O)cc(N4CCOC(C)C4)nc23)cccc1C(F)(F)F (centres unmarked)")
"46%"
>>> measured("Cc1cccc(-c2nc(-c3ccc(S(C)(=O)=O)cc3)sc2-c2ccncc2)c1")
"25%"

Consider the molecule O=C(Nc1n[nH]c2cc(-c3cccc(F)c3)ccc12)C1CC1 and give its measured %Inh. 0%

Same thing, different molecule: Nc1nccc(-c2c(-c3ccc(F)cc3)ncn2C2CCN(CC(F)(F)F)CC2)n1 59%

Again, but for Nc1nc(-c2ccc3c(N)n[nH]c3c2)cc(N2CCCC2)n1 0%

---

- Test system: RSK2(Kin.Dom.1-N-terminal)
- Construct: gene RPS6KA3
- conditions: concentration: 1 μM, replicates: in singlicate; n = 1
In this section we review reported %Inh values for a set of compounds.
// return numeric value only (unit: %, not printed)

Check out these entries, answers already filled in.
>>> measured("Cn1cc(-c2ccc3c(c2)CCN3C(=O)Cc2ccccc2Cl)c2c(N)ncnc21 [GSK2608885]")
0
>>> measured("Fc1ccc(-c2nn3c(OCC(F)(F)F)cccc3c2-c2ccncc2)cc1 [GW514784]")
0
>>> measured("COc1ccc(CNC(=O)NC2CCN(c3ccnc(Nc4ccc(OC)cc4)n3)C2)cc1 (centres unmarked) [GSK1379727]")
7

Please turn your attention to the following entry.
# value lookup — system RSK2(Kin.Dom.1-N-terminal), readout %Inh, item Nc1nccc(-c2c(-c3ccc(F)cc3)ncn2C2CCN(CC(F)(F)F)CC2)n1 [SB-236560] 14

---

- Tested on: HASPIN
- Construct: gene GSG2
- conditions: concentration: 1 μM, replicates: in singlicate; n = 1
result type: %Inh (%)
Lab book: enter the figure in %, no units written.

Please review the following examples before continuing.
>>> measured("Cc1nnc(-c2ccc3occ(-c4ccc(C(C)O)cc4)c3c2)o1 (stereo not drawn)")
29
>>> measured("COc1ccc(CNC(=O)NC2CCN(c3ccnc(Nc4ccc(OC)cc4)n3)C2)cc1 (stereo not drawn)")
19
>>> measured("NS(=O)(=O)c1cccc(-c2ccc3ncc(N4CCOCC4)nc3c2)c1")
36
>>> measured("CSc1ccc(-c2cc3ncnc(SCC(=O)O)c3s2)cc1")
0
>>> measured("Cc1cccc(-c2nc(-c3ccc(S(C)(=O)=O)cc3)sc2-c2ccncc2)c1")
0

Endpoint output: %Inh of Cc1ccc(C(=O)NCC(N)=O)cc1-n1c(C)cc(OCc2ccc(F)cc2F)c(Br)c1=O . Value? 0

Would you mind doing Cc1cccc(-c2nc(Nc3ccc4ncsc4c3)c3ccccc3n2)n1 as well? 16

Also Nc1nccc(-c2c(-c3ccc(F)cc3)ncn2C2CCN(CC(F)(F)F)CC2)n1 , if possible. 36

// next record COc1ccc(Nc2nccc(N3CCC(NC(=O)Nc4cc(C)ccc4C)C3)n2)cc1 (stereo not drawn) 0

Try this molecule next: Fc1ccc(-c2ncn(CCCN3CCOCC3)c2-c2ccccn2)cc1 0

Then what about the molecule O=c1cc(N2CCOCC2)nc2n(Cc3cccc4ccccc34)ccn12 ? 0

And what about the molecule COc1ccc(S(=O)(=O)NC2CCN(c3cc(C)nc(Nc4cccc(C#N)c4)n3)CC2)cc1.O=C(O)C(F)(F)F ? 22

Consider next the molecule NS(=O)(=O)c1cccc(-c2ccc3nccc(-c4cccc(S(N)(=O)=O)c4)c3c2)c1 in the same way. 64

O=C(NOCC1CC1)c1ccc(F)c(F)c1Nc1ccc(I)cc1Cl , same question. 30

Now consider CN1c2ccc(NCc3ccc(F)cc3)cc2-c2c(cnn2C)S1(=O)=O and answer again. 37

Follow-up entry: O=C1Cc2cc(Nc3nc(NCc4cccc(S(=O)(=O)C(F)(F)F)c4)ncc3C(F)(F)F)ccc2N1 8

And what about the molecule Fc1ccc(-c2ncn(CCCN3CCOCC3)c2-c2cccnc2)cc1 ? 41

Similarly, CCc1ccnc(/C=C/c2n[nH]c3cc(Sc4ccccc4C(=O)NC)ccc23)c1 ? 11
